Attribution: ChEMBL document CHEMBL5303304

- System: HEK-293T
- Experiment description: Incucyte cell viability with HEK293T; also: unitless GR value; below 1 slowed growth and below 0 cell loss
- Type: toxicity, cell-based
- Test settings: human, 18 h, 10 µM, compound concentration 10 uM, replicate number 2
Growth Rate under 0.6 gets criterion met, anything at or over 0.6 gets criterion not met.

CN(C(=O)c1cnn2cccnc12)c1cc2c(cc1N1CCOCC1)C(=O)N(C[C@@H](F)C(C)(C)O)C2 | criterion not met

query: Please state whether Growth Rate is below 0.6 for "C[C@@H](CN1CC[C@@]2(C)c3cccc(O)c3C[C@@H]1C2(C)C)OCc1ccccc1.Cl"
result: criterion not met

query: Please state whether Growth Rate is below 0.6 for "CCn1c(=O)c2c(C)c(C(=O)N3CCC(O)CC3)sc2n(CCC(F)(F)F)c1=O"
result: criterion not met

query: Please state whether Growth Rate is below 0.6 for "Fc1ccc(-c2nc(-c3ccc4ccccc4c3F)[nH]c2-c2ccncc2)cc1"
result: criterion met

query: Please state whether Growth Rate is below 0.6 for "CC(C)(C)c1cc(C(C)(C)C)c(NC(=O)c2c[nH]c3ccccc3c2=O)cc1O"
result: criterion not met

query: Please state whether Growth Rate is below 0.6 for "N[C@@H]1CCCN(c2c(/C=C3\SC(=O)NC3=O)cccc2-c2ccccc2)C1"
result: criterion not met

query: Please state whether Growth Rate is below 0.6 for COc1cc(N)c(Cl)cc1C(=O)NC1CN2CCC1CC2.Cl (stereo not drawn)
result: criterion met

query: Please state whether Growth Rate is below 0.6 for "CC(C)(C)c1cnc(CSc2cnc(NC(=O)C3CCNCC3)s2)o1"
result: criterion met

query: Please state whether Growth Rate is below 0.6 for "COc1ccc(CC[C@@H](OC(=O)[C@H]2CCCCN2C(=O)[C@@H](c2cc(OC)c(OC)c(OC)c2)C2CCCCC2)c2cccc(OCCN3CCOCC3)c2)cc1OC"
result: criterion met

query: Please state whether Growth Rate is below 0.6 for "CCN1CCN(Cc2ccc(Nc3ncc(F)c(-c4cc(F)c5nc(C)n(C(C)C)c5c4)n3)nc2)CC1"
result: criterion met

query: Please state whether Growth Rate is below 0.6 for "c1ccc(C(OC2CCN(CCCc3nnn[nH]3)CC2)c2ccccc2)cc1"
result: criterion not met

query: Please state whether Growth Rate is below 0.6 for "c1cnc2cc3c(cc2n1)[C@@H]1CNC[C@H]3C1"
result: criterion not met

query: Please state whether Growth Rate is below 0.6 for "O=C(Nc1ccccc1Br)N[C@@H]1CCN(c2ccc(C(F)(F)F)cn2)C1"
result: criterion met

query: Please state whether Growth Rate is below 0.6 for "COc1cc(-c2cc3ncccc3c(O[C@H](C)[C@H]3CNC(=O)C3)n2)cc(OC)c1OC.Cl"
result: criterion not met

query: Please state whether Growth Rate is below 0.6 for "Cc1noc(C)c1-c1cnc2c(-c3ccc(C(=O)O)cc3)cn([C@@H](C)c3ccccn3)c2c1"
result: criterion not met

query: Please state whether Growth Rate is below 0.6 for "CCN1C(=O)c2cc(C)ccc2N(C)c2ncccc21"
result: criterion not met

query: Please state whether Growth Rate is below 0.6 for "O=C(Nc1snnc1C(=O)Nc1ccc(N2CCCC2)cc1)c1cncc(C(F)(F)F)c1"
result: criterion not met

query: Please state whether Growth Rate is below 0.6 for "CSc1ccc(C(=O)/C=C/c2cc(C)c(OC(C)(C)C(=O)O)c(C)c2)cc1"
result: criterion not met
